All values here come from patent US8865623B2.

Test system: Alopecurus myosuroides (ALOMY)
Experiment: Pre-emergence herbicidal activity, glasshouse pot test
Type: in vivo
Conditions: Alopecurus myosuroides, 312 h; Rate 250 g/ha; pre-emergence spray; evaluated after 13 days; read-out: Pre-emergence activity ALOMY (100=total damage to plant; 0=no damage to plant)
Assign pest or weed control at 250 g/ha to each entry below.
// note: answer is a bare numeric in %

Hello, please tell me recorded pest or weed control at 250 g/ha for this one: CCc1ccc(Oc2ccc3cc(Cl)ccc3n2)cc1C1=C(O)CC2(CCOCC2)CC1=O 40

Hello, please tell me recorded pest or weed control at 250 g/ha for this one: CCc1ccc(Oc2ccc(Br)cc2Cl)cc1C1=C(O)CC2(CCOCC2)CC1=O 50

Hello, please tell me recorded pest or weed control at 250 g/ha for this one: CCc1ccc(Oc2nc3cc(Cl)ccc3s2)cc1C1=C(O)CC(C)(C)CC1=O 80

Hello, please tell me recorded pest or weed control at 250 g/ha for this one: CCc1ccc(Oc2nc3cc(Cl)ccc3s2)cc1C1=C(O)[C@H]2CC[C@H](C2)C1=O 100

* * *

Tested on: Alopecurus myosuroides (ALOMY)
Assay: Post-emergence herbicidal activity, glasshouse pot test
Assay type: in vivo
Details: Alopecurus myosuroides, 312 h, rate 250 g/ha, evaluated after 13 days, glasshouse, read-out: Post-emergence activity ALOMY (100=total damage to plant; 0=no damage to plant)
MEASURED ENDPOINT: pest or weed control at 250 g/ha (%)
// note: answer is a bare numeric in %

Tell me pest or weed control at 250 g/ha of CCc1ccc(Oc2ccc(C(F)(F)F)cc2Cl)cc1C1=C(O)CC(C)(C)CC1=O when tested on Alopecurus myosuroides (ALOMY). 90

Tell me pest or weed control at 250 g/ha of CCc1ccc(Oc2nc3cc(Cl)ccc3s2)cc1C1=C(O)C(C)(C)OC(C)(C)C1=O when tested on Alopecurus myosuroides (ALOMY). 90

Tell me pest or weed control at 250 g/ha of CCc1ccc(Oc2ncc(Br)cn2)cc1C1=C(O)C(C)(C)OC(C)(C)C1=O when tested on Alopecurus myosuroides (ALOMY). 90

Tell me pest or weed control at 250 g/ha of CCc1ccc(Oc2c(F)cc(C(F)(F)F)cc2F)cc1C1=C(O)C(C)(C)OC(C)(C)C1=O when tested on Alopecurus myosuroides (ALOMY). 70

Tell me pest or weed control at 250 g/ha of CCc1ccc(Oc2nccnc2Cl)cc1C1=C(O)C(C)(C)OC(C)(C)C1=O when tested on Alopecurus myosuroides (ALOMY). 10

Tell me pest or weed control at 250 g/ha of CCc1ccc(Oc2ccc(Cl)cc2)cc1C1=C(O)CC(C)(C)CC1=O when tested on Alopecurus myosuroides (ALOMY). 80

Tell me pest or weed control at 250 g/ha of CCc1ccc(Oc2ccc(Br)c(Cl)c2)cc1C1=C(O)[C@@H]2CC[C@](C)(C1=O)C2(C)C when tested on Alopecurus myosuroides (ALOMY). 40

Tell me pest or weed control at 250 g/ha of CCc1ccc(Oc2ccc3cc(Cl)ccc3n2)cc1C1=C(O)[C@H]2CC[C@H](C2)C1=O when tested on Alopecurus myosuroides (ALOMY). 90

* * *

System: Alopecurus myosuroides (ALOMY)
Assay: Post-emergence herbicidal activity, glasshouse pot test
Format: in vivo
Settings: Alopecurus myosuroides, 312 h, rate 250 g/ha, evaluated after 13 days, glasshouse, read-out: Post-emergence activity ALOMY (100=total damage to plant; 0=no damage to plant)
// F strictly below 30% in pest or weed control at 250 g/ha; T otherwise

Say whether CCc1ccc(Oc2ccc(Cl)cc2Cl)cc1C1=C(O)C(C)(C)OC(C)(C)C1=O [Example A-19] shows pest or weed control at 250 g/ha of 30% or more. T

Say whether CCc1ccc(Oc2ccc(Cl)cc2[N+](=O)[O-])cc1C1=C(O)C(C)(C)OC(C)(C)C1=O [Example A-226] shows pest or weed control at 250 g/ha of 30% or more. T

Say whether CCc1ccc(Oc2ncc(Cl)cc2C(F)(F)F)cc1C1=C(O)[C@@H]2CC[C@](C)(C1=O)C2(C)C [Example A-329] shows pest or weed control at 250 g/ha of 30% or more. T

Say whether CCc1ccc(Oc2nc(C(F)(F)F)c(C#N)s2)cc1C1=C(O)C(C)(C)OC(C)(C)C1=O [Example A-115] shows pest or weed control at 250 g/ha of 30% or more. F

Say whether CCc1ccc(Oc2ccc(F)cc2Cl)cc1C1=C(O)C(C)(C)OC(C)(C)C1=O [Example A-33] shows pest or weed control at 250 g/ha of 30% or more. T

Say whether CCc1ccc(Oc2cccc(C(F)(F)F)n2)cc1C1=C(O)C(C)(C)OC(C)(C)C1=O [Example A-53] shows pest or weed control at 250 g/ha of 30% or more. F

Say whether CCc1ccc(Oc2cccc(F)c2)cc1C1=C(O)C(C)(C)OC(C)(C)C1=O [Example A-58] shows pest or weed control at 250 g/ha of 30% or more. F
